System under test: H2 Histamine (Homo sapiens, UniProt P25021)
Sequence (P25021 whole entry): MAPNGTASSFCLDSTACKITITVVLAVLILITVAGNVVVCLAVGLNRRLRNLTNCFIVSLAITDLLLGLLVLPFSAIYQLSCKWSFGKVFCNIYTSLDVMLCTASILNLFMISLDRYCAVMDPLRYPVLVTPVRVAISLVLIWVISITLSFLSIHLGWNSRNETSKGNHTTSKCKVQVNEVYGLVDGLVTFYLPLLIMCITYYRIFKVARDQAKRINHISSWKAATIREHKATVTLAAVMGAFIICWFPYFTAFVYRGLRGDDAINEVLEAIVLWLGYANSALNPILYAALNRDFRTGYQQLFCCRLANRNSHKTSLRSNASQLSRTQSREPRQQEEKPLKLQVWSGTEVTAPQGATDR
pKi: −log10 of the molar value.
Experimental endpoint: pKi

Entry COc1cccc(OC)c1NC(=O)c1ccc(Cc2cc3c(cc2C)C(C)(C)CCC3(C)C)o1 [Compound 20] : reported pKi = ?
~6.00

----------
System under test: mouse GnRH receptor (Mus musculus)
Construct: expressed in transfected cells; host or cells: 293 cells
Sequence (Q01776 1-327): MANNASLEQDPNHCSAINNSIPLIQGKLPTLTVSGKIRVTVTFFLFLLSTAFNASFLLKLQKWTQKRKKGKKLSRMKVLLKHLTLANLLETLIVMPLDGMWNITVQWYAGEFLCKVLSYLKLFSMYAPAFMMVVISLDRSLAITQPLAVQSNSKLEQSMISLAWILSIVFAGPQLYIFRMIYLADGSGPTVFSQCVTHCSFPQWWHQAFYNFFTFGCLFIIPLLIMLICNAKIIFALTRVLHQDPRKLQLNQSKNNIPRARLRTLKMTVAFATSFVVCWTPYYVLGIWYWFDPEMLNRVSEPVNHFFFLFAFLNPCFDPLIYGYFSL
Test description: Radioligand binding, 125I-GnRH-A, 293 cells expressing mouse GnRH receptors
Condition context: 1 h, substrate remaining; 10 uM compound; closer to zero = closer to 100% inhibition; read-out: S%R 10 uM mGnRHR
Could you please mark fulfilled for values of remaining activity at 10 µM below 30% and not fulfilled for values at or above it?

Some solved cases for reference:
{"Compound": "Cc1cc2c(cc1Cc1ccc(C(=O)Nc3nc(N(C)C)nc4nc[nH]c34)o1)C(C)(C)CCC2(C)C", "Qualitative label": "not fulfilled"}
{"Compound": "Cc1cc2c(cc1Cc1ccc(C(=O)NCC(F)(F)F)o1)C(C)(C)CCC2(C)C", "Qualitative label": "fulfilled"}
{"Compound": "Cc1cc2c(cc1Cc1ccc(C(=O)N3CC(C)CC(C)C3)o1)C(C)(C)CCC2(C)C (stereo not drawn)", "Qualitative label": "fulfilled"}

For "COc1cc(CCNC(=O)c2ccc(Cc3cc4c(cc3C)C(C)(C)CCC4(C)C)o2)cc(OC)c1O" , is the recorded remaining activity at 10 µM below the cut-off of 30%?
fulfilled

And for Cc1cc2c(cc1Cc1ccc(C(=O)N(Cc3cccnc3)CC3CC=CCC3)o1)C(C)(C)CCC2(C)C (stereo not drawn) ?
fulfilled

Next record, please: "Cc1cc2c(cc1Cc1ccc(C(=O)NCCc3c[nH]c4ccc(Cl)cc34)o1)C(C)(C)CCC2(C)C"
fulfilled

// next record "Cc1cc2c(cc1Cc1ccc(C(=O)N3CCC(O)(c4ccc(Cl)cc4)CC3)o1)C(C)(C)CCC2(C)C"
not fulfilled

"CCN(CC)CCCNC(=O)c1ccc(Cc2cc3c(cc2C)C(C)(C)CCC3(C)C)o1" , same question.
fulfilled

Same lookup for Cc1cc2c(cc1Cc1ccc(C(=O)NCC(O)c3ccccc3)o1)C(C)(C)CCC2(C)C (stereo not drawn) , please.
fulfilled

Try the compound "Cc1cc2c(cc1Cc1ccc(C(=O)NCCc3cccnc3)o1)C(C)(C)CCC2(C)C"
fulfilled

Moving on to the next compound: "CCN(CCO)C(=O)c1ccc(Cc2cc3c(cc2C)C(C)(C)CCC3(C)C)o1"
fulfilled

Same lookup for "Cc1cc2c(cc1Cc1ccc(C(=O)NCCNc3cccc4ccccc34)o1)C(C)(C)CCC2(C)C" , please.
not fulfilled

// query: CCC(O)CNC(=O)c1ccc(Cc2cc3c(cc2C)C(C)(C)CCC3(C)C)o1 (stereo not drawn)
fulfilled

Repeat with "Cc1cc2c(cc1Cc1ccc(C(=O)NCC3CCNCC3)o1)C(C)(C)CCC2(C)C"
fulfilled

And then "COc1cc(OC)cc(N2CCN(C(=O)c3ccc(Cc4cc5c(cc4C)C(C)(C)CCC5(C)C)o3)CC2)c1" , what is it?
not fulfilled

# repeat for "COc1ccc(OC)c(CCNC(=O)c2ccc(Cc3cc4c(cc3C)C(C)(C)CCC4(C)C)o2)c1"
fulfilled

Try this compound next: "Cc1cc2c(cc1Cc1ccc(C(=O)NCCCNCCCCNCCCN)o1)C(C)(C)CCC2(C)C"
not fulfilled

Also "CCCCN(CCCC)CCCNC(=O)c1ccc(Cc2cc3c(cc2C)C(C)(C)CCC3(C)C)o1" ?
fulfilled

Cc1cc2c(cc1Cc1ccc(C(=O)N3CCC(NC(=O)OC(C)(C)C)C3)o1)C(C)(C)CCC2(C)C (stereo not drawn) , same question.
fulfilled

Another compound to look at: "Cc1cc2c(cc1Cc1ccc(C(=O)N(CCCN3CCN(C)CC3)Cc3cc(C)n(-c4cccc(C(F)(F)F)c4)c3C)o1)C(C)(C)CCC2(C)C"
fulfilled

Value source: patent US7101878B1
